Entry source: patent US9908896B2

Assay: Single dose i.p. and i.v. blood brain barrier permeability study, plasma and brain concentration (LC-MS/MS)
Assay type: in vivo, male Sprague Dawley rat
Conditions: male, Sprague Dawley, rat, plasma, intraperitoneal, 10 mg/kg, 10 mg/kg i.p., rats R1, R2, R3, read-out: Concentration in rat plasma i.p. at 2 h, individual rats
Procedure: The objective of these tests was to determine the plasma and brain concentration of the compound 1 in male Sprague Dawley rat after single intraperioneal (i.p.) and intravenous (i.v.) administration. […] Bioanalysis was performed using fit-for-purpose LC-MS/MS method for the quantification of test compounds in plasma samples and brain homogenate. […] Study samples were analysed along with two sets of quality control samples (6 QC samples; low, medium and high QC sample). […]
assay-metric: concentration at 2 h (µg/mL)
The reply should be a number in µg/mL, with the unit left off.

# input What concentration at 2 h value was documented for this compound, CCCOc1ccc(Nc2nc3nonc3nc2N2CCC(Oc3ccc(Cl)cc3)CC2)cc1 ?
# output 0.123

---

test: Single dose i.p. and i.v. blood brain barrier permeability study, plasma and brain concentration (LC-MS/MS); type: in vivo, male Sprague Dawley rat; conditions: male, Sprague Dawley, rat, brain homogenate, intraperitoneal, 10 mg/kg, 10 mg/kg i.p., rats R1, R2, R3, read-out: Concentration in rat brain homogenate i.p. at 2 h, individual rats
assay-metric: concentration at 2 h (ng/g)
Please respond with the number in ng/g and leave the unit unwritten.

# input Given the compound CCCOc1ccc(Nc2nc3nonc3nc2N2CCC(Oc3ccc(Cl)cc3)CC2)cc1 , what is its reported concentration at 2 h?
# output 49.1

---

assay: Single dose i.p. and i.v. blood brain barrier permeability study, plasma and brain concentration (LC-MS/MS); format: in vivo, male Sprague Dawley rat; conditions: male, Sprague Dawley, rat, brain homogenate, intravenous, 10 mg/kg, 10 mg/kg i.v., mean of 3 rats, read-out: Concentration in rat brain homogenate i.v. at 2 h, Mean
assay-metric: concentration at 2 h (ng/g)
Report the value in ng/g with no unit label.

# input Request the reported concentration at 2 h associated with CCCOc1ccc(Nc2nc3nonc3nc2N2CCC(Oc3ccc(Cl)cc3)CC2)cc1 [Comp 1]
# output 386

---

biological target: recombinant activated p38alpha (Homo sapiens); construct: purchased ProQinase; test: in vitro kinase assay p38 (ADP-Glo); assay type: biochemical; conditions: 10 μM compound; 100 μM ATP
Sequence (Q16539 whole entry): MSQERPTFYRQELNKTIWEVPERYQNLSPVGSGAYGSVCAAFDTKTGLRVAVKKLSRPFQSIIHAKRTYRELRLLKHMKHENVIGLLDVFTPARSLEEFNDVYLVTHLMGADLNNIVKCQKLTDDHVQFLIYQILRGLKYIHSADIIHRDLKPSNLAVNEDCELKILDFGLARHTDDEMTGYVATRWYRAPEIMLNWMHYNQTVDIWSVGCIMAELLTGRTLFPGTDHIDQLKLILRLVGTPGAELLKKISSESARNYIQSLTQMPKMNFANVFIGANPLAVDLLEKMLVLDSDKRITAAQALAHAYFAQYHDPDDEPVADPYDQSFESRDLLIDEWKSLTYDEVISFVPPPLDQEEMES
Each entry below lists one item and its recorded inhibition at 10 µM value.

INSERT INTO assay_data (compound, assay_metric, assay_value) VALUES
  ('CCCOc1ccc(Nc2nc3nonc3nc2N2CCC(Oc3ccc(Cl)cc3)CC2)cc1 [Comp 1]', 'inhibition at 10 µM', '99%'),
  ('CCCOc1cccc(Nc2nc3nonc3nc2N2CCC(Sc3ccc(C)cc3)CC2)c1 [Comp 7]', 'inhibition at 10 µM', '87%'),
  ('CCOc1cccc(Nc2nc3nonc3nc2N2CCC(Oc3ccc(Cl)cc3)CC2)c1 [Comp 4]', 'inhibition at 10 µM', '68%'),
  ('CCCOc1ccc(Nc2nc3nonc3nc2N2CCN(Cc3ccc(Cl)cc3)CC2)cc1 [Comp 9]', 'inhibition at 10 µM', '68%');

Turning now to a further record.
# input // lookup inhibition at 10 µM | system=recombinant activated p38alpha (Homo sapiens) | key= CCOc1ccc(Nc2nc3nonc3nc2N2CCN(Cc3ccc(Cl)cc3)CC2)cc1 [Comp 10]
# output 52%
